Sourced from patent US10640547B2

SYSTEM TESTED: HLA-A*02:01 (Homo sapiens, UniProt P04439, D140Y/D185E/D98H/E176V/E277Q/G131W/G231S/I119V/I121R/I166T/I218V/L300P/L318F/N151K/N90K/P208A/P217A/Q86G/Q94H/R138H/R169H/T345S)
TEST METHOD NOTES: MHC binding assay (UV-ligand exchange, β2m ELISA)
EXPERIMENTAL CONTEXT: MHC class I binding score; binding to HLA-A*02:01 ranged by peptide exchange yield (UV-ligand exchange, β2m ELISA)
QUANTITY: Peptide exchange

SUBSTANCE | QUANTITY | EXPERIMENTAL RESULT
197 (ALDSGFNSV; listed as Homo sapiens) [compound 197] | Peptide exchange | ++++ (>75% = ++++)
69 (IIDDKPIGL; listed as Homo sapiens) [compound 69] | Peptide exchange | +++ (>50 = +++)
76 (QIDSIHLLL; listed as Homo sapiens) [compound 76] | Peptide exchange | +++ (>50 = +++)
206 (LLYEDIPDKV; listed as Homo sapiens) [compound 206] | Peptide exchange | +++ (>50 = +++)
89 (ILDNSPAFL; listed as Homo sapiens) [compound 89] | Peptide exchange | +++ (>50 = +++)
213 (LLDPTNVFI; listed as Homo sapiens) [compound 213] | Peptide exchange | ++++ (>75% = ++++)
97 (NLDATVTAL; listed as Homo sapiens) [compound 97] | Peptide exchange | +++ (>50 = +++)
